Tested on: UO-31 renal
Assay: NCI tumour cell line growth inhibition, 48 h

compound | TGI
Cn1cc(-c2nc(-c3c[nH]c4ccccc34)cs2)c2cccnc21 | > 100 µM
CCOP(=O)(OCC)C(Cc1cn(S(=O)(=O)c2ccc(C)cc2)cn1)C(=O)O (stereo unspecified) | > 100 µM
CCCC(CCC(=O)O)(CCC(=O)O)[N+](=O)[O-] | > 100 µM
CN(CCCNC(=O)c1[nH]nc2c1ccc1ccccc12)CCCNC(=O)c1[nH]nc2c1ccc1ccccc12 | 31.4 µM
C=C1[C@H](O)C[C@@H](C(C)C(O)CC=C(C)C)[C@@H](O)[C@@H]2C(C)=CC[C@@H]12 (stereo partly specified) | > 100 µM
Oc1ccccc1-c1cnnc(-c2ccccc2O)c1 | 44.3 µM
CC(C)Cc1cc(-c2cccn2C)c(C#N)c(=O)[nH]1 | > 100 µM
Cc1ccc(C2=C(c3ccccc3)C(O)(c3ccccc3)C(c3ccccc3)=C2c2ccc(C)cc2)cc1 | > 100 µM
COC(=O)/C(=C1\OC(=O)C(c2ccc(Cl)cc2)=C1O)c1ccc(Cl)cc1 | 68.9 µM
C1=Nc2ccc(cc2)-c2ccc(cc2)N=Cc2ccccc2OCc2cccc(n2)COc2ccccc21 | > 100 µM
O=S1(=O)CC#CC[C@@H](CO)[C@@H](CO)CC#CC1 | > 100 µM
Nc1[nH]c(=S)[nH]c(=O)c1N=Nc1c(Br)cc(S(N)(=O)=O)cc1Br | > 100 µM
O=C(Nc1n[nH]c2cc(-c3ccc(F)cc3)ccc12)C1CC1 | > 25 µM
O=[N+]([O-])c1cc(-c2ccc([As](=O)(O)O)cc2)ccc1[As](=O)(O)O | > 100 µM
N/C(=N/O)NOCCC(N)C(=O)O (stereo unspecified) | > 100 µM
COc1ccc2cc(CNCCOCCOCCNCc3ccc4cc(OC)ccc4c3)ccc2c1 | 2.61 µM
Oc1ccc(Cl)cc1N=Nc1c(O)ccc2ccccc12 | > 100 µM
Cn1cnc([N+](=O)[O-])c1Sc1nnc(-c2ccc(Cl)cc2)n1C | 32.8 µM
CCN(CC)CCNC(=O)C1COc2ccc(-c3cc(=O)c4ccccc4o3)cc2O1 (stereo unspecified) | 29.6 µM
Cc1[nH]c(-c2ccccc2)c(O)c1C(=O)OC1CC(C)CCC1C(C)C (stereo unspecified) | 26 µM
CN(C)CCNC(=O)c1cccc2c(NC(CCCN=C(N)N)C(=O)O)c3ccccc3nc12 (stereo unspecified) | > 100 µM

----------
Test system: MCF7 breast
Test: NCI tumour cell line growth inhibition, 48 h
Known GI50 of a selection of compounds
result.type: GI50

compound | result
C=C1C(=O)O[C@H]2[C@H]1CC/C(COC(=O)NCCc1ccc(Br)cc1)=C\CC[C@@]1(C)O[C@@H]21 | 417 nM
c1ccc2c(c1)CCCc1nnc3nc4ccccc4n3c1-2 | 4100 nM
CC1(/C=C/c2ccc(-c3ccccc3)cc2)CCn2cnc3ncnc(c32)N1O (stereo unspecified) | 342 nM
Cc1ccc2c(c1)n([O-])c(C(F)(F)F)c(C(=O)c1ccco1)[n+]2=O | 762 nM
Cc1cc(C2CC(O)C(CO)O2)c(Br)cc1Br (stereo unspecified) | > 100000 nM
N/C(=N/O)NOCCC(N)C(=O)O (stereo unspecified) | > 100000 nM

----------
Tested on: OVCAR-5 ovarian
Test: NCI tumour cell line growth inhibition, 48 h; in the data active means GI50 below about 0.43 µM; inactive means the rest
Classes used: active, inactive

molecule | assigned.class
Cn1cc(-c2nc(-c3c[nH]c4ccccc34)cs2)c2cccnc21 | inactive
c1ccc(OCC[P+](c2ccccc2)(c2ccccc2)c2ccccc2)cc1 | inactive
CC(=O)OCc1cc[c]([Hg][Cl])o1 | inactive
Cc1c(-c2c(F)cc(C(N)=O)c3[nH]c4c(c23)CC[C@H](C(C)(C)O)C4)cccc1-n1c(=O)c2cccc(F)c2n(C)c1=O | inactive
COc1ccc(C2CC(=O)Nc3c2c(C)nn3-c2nc3ccccc3[nH]2)cc1OC (stereo unspecified) | inactive
CS(=O)(=O)Nc1cc(-c2ccc3ncnc(Nc4ccc(OCc5ccccn5)c(Cl)c4)c3c2)cnc1Cl | active
O=[N+]([O-])c1ccc(NC(c2ccccc2)c2ccc3cccnc3c2O)cc1 (stereo unspecified) | inactive
CC1(/C=C/c2ccc(-c3ccccc3)cc2)CCn2cnc3ncnc(c32)N1O (stereo unspecified) | inactive
[N-]=[N+]=NCCCn1c2c(c3ccccc3c1=O)C(=O)c1cc3c(cc1-2)OCO3 | inactive
CC(=O)Nc1ccc2c(c1)[nH]c(=O)c1cc(NC(C)=O)ccc12 | inactive
O=C(Nc1cccc(Cl)c1)Nc1cc(C(F)(F)F)ccc1Cl | inactive
COc1cc(N2CCN(C(C)C)CC2)ccc1Nc1nc(Nc2ccc(F)cc2C(N)=O)c2cc[nH]c2n1 | active
c1ccc2c(c1)CCCc1nnc3nc4ccccc4n3c1-2 | inactive
O=c1[nH]c(=O)n(C2C[C@@H](O)[C@@H](CO)O2)cc1F (stereo partly specified) | inactive
Nc1ncnc2c1ncn2Cc1ccc(CCl)cc1 | inactive
O=C(Nc1c(Cl)cccc1Cl)Oc1cccc2cccnc12 | inactive

----------
System: UACC-257 melanoma
Assay: NCI tumour cell line growth inhibition, 48 h
Known TGI of a selection of compounds

compound | TGI
COc1cc(/C=C/[N+](=O)[O-])cc(OC)c1 | 7.57 µM
CN1C(=O)CC(CC(=O)C2CCCCC2=O)CC1=O (stereo unspecified) | > 100 µM
Oc1ccccc1-c1cnnc(-c2ccccc2O)c1 | 53.5 µM
CC(C)Cc1cc(-c2cccn2C)c(C#N)c(=O)[nH]1 | > 100 µM
C[C@]12CC[C@@H]3c4cc(C=O)c(OCc5ccccc5)cc4CC[C@H]3[C@@H]1CCC2OCc1ccccc1 (stereo partly specified) | > 100 µM
Nc1nc2c(nnn2C2C=C(CO)C(O)C2O)c(=O)[nH]1 (stereo unspecified) | > 100 µM

----------
Tested on: MDA-N
Assay: NCI tumour cell line growth inhibition, 48 h

compound | TGI
C#CCn1c(=O)c2cc(OC)c(OC)cc2n(CC#C)c1=O | > 10 µM
Nc1[nH]c(=S)[nH]c(=O)c1N=Nc1c(Br)cc(S(N)(=O)=O)cc1Br | > 100 µM
CCOP(=O)(OCC)C(Cc1cn(S(=O)(=O)c2ccc(C)cc2)cn1)C(=O)O (stereo unspecified) | > 100 µM
Cn1c(=Nc2ccccc2[N+](=O)[O-])sc2ccccc21 | > 100 µM
CC(NC(=O)C(NC(=O)C(NC(=O)C(F)(F)F)C(C)C)C(C)C)C(=O)Oc1c(Cl)c(Cl)c(Cl)c(Cl)c1Cl (stereo unspecified) | > 100 µM
O=[N+]([O-])c1cc(-c2ccc([As](=O)(O)O)cc2)ccc1[As](=O)(O)O | > 100 µM
C=C1CC2(CC(c3ccccc3C)OC(c3ccccc3C)C2)OC1=O (stereo unspecified) | 3.32 µM
O=C(NC1CCCCC1)N1CCNC1=S | > 100 µM
COc1ccc2cc(CNCCOCCOCCNCc3ccc4cc(OC)ccc4c3)ccc2c1 | 2.35 µM
COc1ccc2nc3c(nc2c1)C(C)(C)C=C3c1ccc(Br)cc1 | > 100 µM
OCC1OC(N2CCN(C3OC(CO)C(O)C(O)C3O)CC2)C(O)C(O)C1O (stereo unspecified) | > 100 µM
COc1c(C(=O)CC2c3c(cc4oc(C)cc(=O)c4c3OC)OC(=N)C2c2nc3ccccc3[nH]2)c(O)c(OC)c2occc12 (stereo unspecified) | > 100 µM
CN(C)CCNC(=O)c1cccc2c(NC(CCCN=C(N)N)C(=O)O)c3ccccc3nc12 (stereo unspecified) | > 100 µM
Cc1nc(-n2nc(-c3ccccc3)cc2-c2ccccc2)sc1C(/C=C\c1ccc([N+](=O)[O-])cc1)=N/NC(=S)NN | 50.7 µM
CCCC(CCC(=O)O)(CCC(=O)O)[N+](=O)[O-] | > 100 µM
COc1ccc(/C=C2\CCC(C)(CN(C)C)C2=O)cc1Br (stereo unspecified) | 41.2 µM
COc1ccccc1-c1nc[nH]c1-c1ccccc1OC | 34.9 µM
NC(=O)C1CCCN1Cc1ccc2c(c1)OCO2 (stereo unspecified) | > 100 µM
CC(=O)[C@H]1CC[C@@H]2[C@]1(C)CC=C1[C@]23C=C[C@]2(C[C@@H](O)CC[C@]12C)C(C(=O)O)C3C(=O)O (stereo partly specified) | > 100 µM
CCc1cc2c(cc1O)CC[C@@H]1[C@@H]2CC[C@]2(C)[C@@H](O)CC[C@@H]12 | 8.62 µM
COc1cc(OC)c(OC)cc1/C=C/c1ccc2ccccc2n1 | > 10 µM
COc1cc2ccnc3c2c(c1OC)N(C)C=C3 | 36.1 µM
C=C1C(O)C2OC(=O)C(=C)C2C(OC(=O)/C(C)=C/C)CC2(C)OC2C2OC12 (stereo unspecified) | 6.02 µM
C[C@]12CC[C@@H]3c4cc(C=O)c(OCc5ccccc5)cc4CC[C@H]3[C@@H]1CCC2OCc1ccccc1 (stereo partly specified) | > 100 µM
COc1cccc2c1CCc1sc(CN3CCN(C)CC3)nc1-2 | > 100 µM
CCOC(=O)/C(C(N)=O)=C(/O)c1cnccn1 | > 100 µM
